Reported pKd by item:
Target: recombinant human MCL-1ΔNΔC (amino acids 172–320) (human, UniProt Q07820 172-320)
Sequence (Q07820 172-320, stated change not applied): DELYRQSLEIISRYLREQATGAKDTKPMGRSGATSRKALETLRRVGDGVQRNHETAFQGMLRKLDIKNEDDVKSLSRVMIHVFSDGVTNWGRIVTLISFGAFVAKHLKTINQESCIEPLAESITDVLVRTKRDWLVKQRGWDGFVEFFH
Assay: fluorescence polarisation
pKd: −log10 of the molar value. Positions of bridges follow the written chain, without caps; N, C: chain ends. Non-standard residues stand in square brackets, D forms with d. No end group written: not given here. *: point of attachment. FITC = O=C1OC2(c3ccc(O)cc3Oc3cc(O)ccc32)c2ccc(NC(=S)*)cc21; S5 = C=CCCC[C@](C)(N)C(=O)O; Nle = CCCC[C@H](N)C(=O)O; βAla = NCCC(=O)O

binder: {FITC-βAla}-QWAREIGAQLR[S5][Nle]AD[S5]LNAQY (staple 12-16) [FITC-PUMA SAHBA]
pKd: ≥ 7.30

Please find the next binder below.
Value lookup for pKd; key = {FITC-βAla}-DIIRNIARHLA[S5]VGD[S5][Nle]DRSI (staple 12-16) [FITC-BID SAHBA] ≥ 7.30
